- Tested on: THRa:RXRa (NR concentration 90 nM, RXRa partner concentration 90 nM)
- experiment notes: PBM binding z-score (relative to random genomic background probes); higher = stronger binding; sequences stand for … in GC…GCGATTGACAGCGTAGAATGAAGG
test readout: PBM binding z-score
I only need the number, thanks.

- sequence entry: "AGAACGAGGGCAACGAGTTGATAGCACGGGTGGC"
  obs value: 0.99
- sequence entry: "CGAACTCGGTCATCCAGGACAGTGAATACATTGA"
  obs value: 2.12
- sequence entry: "CCGTACGGGTCACGAGGTTATAGCACGACGAGCG"
  obs value: 3.75

--- query ---
Log: THRa:RXRa (NR concentration 90 nM, RXRa partner concentration 90 nM), sequence TCATGTAGGTAAAAGGTGAAAGTCGGTGTGGTAA , PBM binding z-score = 1.75

----------
- Test system: PPARg:RXRa 30nM:10nM, anti-RXR (NR concentration 30 nM, RXRa partner concentration 10 nM)
- experiment notes: PBM binding z-score (relative to random genomic background probes); higher = stronger binding; sequences stand for … in GC…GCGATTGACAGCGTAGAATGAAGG
Class True: PBM binding z-score at least 0.6. Class False: PBM binding z-score below 0.6.

Study these solved cases before continuing.
- sequence entry: "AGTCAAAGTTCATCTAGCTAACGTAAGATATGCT"
  assigned label: "True"
- sequence entry: "TCTATTAGTCGAAGGGCAACCGACGAGTCCGTTT"
  assigned label: "True"
- sequence entry: "CGTCAAAGTACAACTAAGGTAACGTAAAGCACGC"
  assigned label: "False"
- sequence entry: "ATCTCTAGGTAACCAAGGTCAGTGAATGCCGAAC"
  assigned label: "False"
- sequence entry: "TCTTGTAGATCAAGCAGGTTAAGATAGCCTGAGT"
  assigned label: "True"

Input: Given CCTACTGGGCCACGAAAGCTCATTGATTCAGTGA , state whether its PBM binding z-score is at least 0.6.
Output: False

Input: Exam item: decide whether the reported PBM binding z-score for TCAGACAGGTGAAGGTAACGCAGGTACGCAGTCG is at least 0.6.
Output: True

----------
- Tested on: LXRb homodimer (NR concentration 270 nM)
- experiment notes: PBM binding z-score (relative to random genomic background probes); higher = stronger binding; sequences stand for … in GC…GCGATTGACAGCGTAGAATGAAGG
We begin with a simple list: items and their reported PBM binding z-score.
Lab note: record just the number, no unit beside it.

- sequence entry: "TCTCCTAGGTCAGTTGGTCAGCTAACGAGCTGCC"
  obs value: 1.43

For reference, reported PBM binding z-score for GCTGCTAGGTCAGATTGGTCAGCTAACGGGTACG stands at -0.238

Memo: ATATGTAGGTTAAGGCTCATTCAGGTTGGTTCGC , reported PBM binding z-score: 0.0062

sequence TCTATTAGTTGATTAGGGCAGCCGAAACAGCGGA , PBM binding z-score observed: 0.663

----------
- Tested on: FXR:RXRa (NR concentration 270 nM, RXRa partner concentration 90 nM)
- experiment notes: PBM binding z-score (relative to random genomic background probes); higher = stronger binding; sequences stand for … in GC…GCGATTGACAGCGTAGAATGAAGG
test readout: PBM binding z-score

- sequence entry: "TCAAGTTGGTCACGGAGGTCACACACGACGGGTA"
  PBM binding z-score: 3.09
- sequence entry: "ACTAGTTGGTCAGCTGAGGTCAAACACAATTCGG"
  PBM binding z-score: 3.81
- sequence entry: "CCTAGCAGGCCAGGGTCACTGAAGCATTTCGCTT"
  PBM binding z-score: 2.08
- sequence entry: "GCTTGTAGATCATGGTTAAGAAAGACTAAGCTAA"
  PBM binding z-score: -0.444
- sequence entry: "CCTTACGGGTCACTCCAGGTTACAGCATCGGAGT"
  PBM binding z-score: 4.9
- sequence entry: "ATATGTAGGTTGTCGGGTCATTCAGTTTGCGCAT"
  PBM binding z-score: 2.12

# PBM binding z-score (sequence: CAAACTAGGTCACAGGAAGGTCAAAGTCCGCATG ) is 5.68

Measured PBM binding z-score of ACTAGCAGGCCAAGTTTGGGTCGCTCAAACAAAG : -0.398

// sample CAAACTAGGCCACCGGAAGGTCAAAGTCCGCATG , its PBM binding z-score was 2.96

Quick note, PBM binding z-score for ACTAGTTGGTCCGCTGAGGTCACACACAATTCGG landed at 2.59

Input ATCGAAAGTTCGTGAGGTGAGTATACAGAAAGGC . Output PBM binding z-score: 1.21

----------
- Test system: VDR:RXRa (NR concentration 270 nM, RXRa partner concentration 90 nM)
- experiment notes: PBM binding z-score (relative to random genomic background probes); higher = stronger binding; sequences stand for … in GC…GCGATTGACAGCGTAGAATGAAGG
test readout: PBM binding z-score
Could you keep your reply to the number by itself?

These solved cases illustrate the format of a correct answer.
- sequence entry: "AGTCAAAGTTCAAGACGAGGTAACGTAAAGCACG"
  test readout: "PBM binding z-score"
  obs value: 4.07
- sequence entry: "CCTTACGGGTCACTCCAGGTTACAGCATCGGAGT"
  test readout: "PBM binding z-score"
  obs value: 3.95
- sequence entry: "GCGACTGGGGCATCAGCAGGTTACGATAACTTAA"
  test readout: "PBM binding z-score"
  obs value: 0.0769

So the reported PBM binding z-score for TAGCTTAGGTCATTGGGCCAGTATAGTACGCATC , on VDR:RXRa (NR concentration 270 nM, RXRa partner concentration 90 nM), turned out to be 2.4

PBM binding z-score on VDR:RXRa (NR concentration 270 nM, RXRa partner concentration 90 nM) for TAGCCTAGGTCAGGTCGGGCCAGTATACGCTATA is 1.03

Assay VDR:RXRa (NR concentration 270 nM, RXRa partner concentration 90 nM), sample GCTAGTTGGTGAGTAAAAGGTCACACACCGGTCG , PBM binding z-score read: 3.72

CCGACTGGGGCAGAAAGGTTGCCATACCATCCGG on VDR:RXRa (NR concentration 270 nM, RXRa partner concentration 90 nM) gives PBM binding z-score = -0.0793

Record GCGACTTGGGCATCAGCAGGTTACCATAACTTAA ; system VDR:RXRa (NR concentration 270 nM, RXRa partner concentration 90 nM); PBM binding z-score = -0.417

Form field, PBM binding z-score with VDR:RXRa (NR concentration 270 nM, RXRa partner concentration 90 nM), item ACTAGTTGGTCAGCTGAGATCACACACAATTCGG : 0.193

Recorded PBM binding z-score for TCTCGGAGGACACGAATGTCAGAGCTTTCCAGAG on VDR:RXRa (NR concentration 270 nM, RXRa partner concentration 90 nM) was -0.117

Note to self: PBM binding z-score of CCTCGGAGGACGACAGGAGGTCAGAGCTGCCAGA with VDR:RXRa (NR concentration 270 nM, RXRa partner concentration 90 nM) was 1.44

// PBM binding z-score (VDR:RXRa (NR concentration 270 nM, RXRa partner concentration 90 nM)) for ACTTACGGATCAACGAGGTTATAGCACGCGTATA = 4.59

----------
Here the recorded PBM binding z-score is given for each entry.
- Tested on: PPARg:RXRa 30nM:10nM, anti-RXR (NR concentration 30 nM, RXRa partner concentration 10 nM)
- experiment notes: PBM binding z-score (relative to random genomic background probes); higher = stronger binding; sequences stand for … in GC…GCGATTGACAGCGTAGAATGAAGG

Examples with their reported PBM binding z-score follow.
- sequence entry: "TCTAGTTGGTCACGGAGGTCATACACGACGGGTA"
  obs value: 3.65
- sequence entry: "AGAATGAGGTTATTAAGATCAGGGTATTGCGGTC"
  obs value: 0.322
- sequence entry: "ACTATTAGTTGACTTGGGGCAACCGATACGACGC"
  obs value: 0.327
- sequence entry: "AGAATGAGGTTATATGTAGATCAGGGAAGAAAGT"
  obs value: 0.823
- sequence entry: "ACTAGCAGGCCTAGTTTGGGTCACTCAAACAAAG"
  obs value: -0.572

Bench note, PPARg:RXRa 30nM:10nM, anti-RXR (NR concentration 30 nM, RXRa partner concentration 10 nM): entry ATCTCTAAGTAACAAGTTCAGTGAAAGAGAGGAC , its PBM binding z-score = 0.701

Field PBM binding z-score (system: PPARg:RXRa 30nM:10nM, anti-RXR (NR concentration 30 nM, RXRa partner concentration 10 nM)) for entry CCTTACCGGTCACTGACAGGTTATAGCATTTGGA = 0.114

Reported PBM binding z-score (PPARg:RXRa 30nM:10nM, anti-RXR (NR concentration 30 nM, RXRa partner concentration 10 nM)) for entry TTACCAAGATGAGCTGAGGTCGTTGATCCAACTC is 0.543

Measured on PPARg:RXRa 30nM:10nM, anti-RXR (NR concentration 30 nM, RXRa partner concentration 10 nM), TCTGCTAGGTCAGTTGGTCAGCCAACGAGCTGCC has a documented PBM binding z-score of 1.52

Measured PBM binding z-score (PPARg:RXRa 30nM:10nM, anti-RXR (NR concentration 30 nM, RXRa partner concentration 10 nM)), entry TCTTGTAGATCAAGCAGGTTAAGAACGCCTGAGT : 2.6

Value sought: PBM binding z-score, system PPARg:RXRa 30nM:10nM, anti-RXR (NR concentration 30 nM, RXRa partner concentration 10 nM), item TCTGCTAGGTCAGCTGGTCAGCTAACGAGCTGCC . Result: 1.12
